B1: SCNN1D (parent)
chain: FYRLYQDLETHRLPCTSRCPRPCR

Variants of: B1
Assay: protein stability index of a GFP-peptide fusion (GPS, HEK-293T) (PSI 1-6); higher = more stable;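 further: lentivirally expressed fusions sorted by FACS into six bins by GFP to DsRed ratio, PSI derived from sequencing read proportions per bin multiplied by bin number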
Details: c terminus: a fixed tail appended
observation_type: protein stability index

R3V	2.04
S17I	1.85
R18N	2.18
P20F	2.83
R12I	1.42
Q6T	1.72

**Query** Can you look up the measured protein stability index of `R21F` for me?
**Result** 1.96

**Query** // protein stability index lookup, key: `P14H`
**Result** 1.97

**Query** Give its protein stability index value. Item: `F1W`
**Result** 2.91

**Query** Tell me the measured protein stability index of `R18T` , please.
**Result** 2.15

**Query** Fill in: protein stability index of `L4A` is ___
**Result** 3.02

**Query** // lookup protein stability index for `T16S`
**Result** 1.82

**Query** Please report the recorded protein stability index for `R24P` .
**Result** 2.35

**Query** I am curious: what protein stability index value has been reported for `L4E` ?
**Result** 4.13

**Query** Could you tell me which protein stability index is on file for `R12H` ?
**Result** 3.03

**Query** GET /values?readout=protein stability index&item= `C23Q`
**Result** 2.42

All values here come from the supplement of paper PMC10567573.
